Assay: Displacement of [3H]cytisine from neuronal nicotinic acetylcholine receptor in rat brain membrane
Format: cell membranes
measured-endpoint: Log Ki

// known answers, use as guide
Clc1ccc(N2C[C@H]3CN[C@H]3C2)cn1; -9.77
COc1cc(N2C[C@H]3CN[C@H]3C2)cnc1Br; -10.15
COc1cc(N2C[C@@H]3CN[C@@H]3C2)cnc1Br; -8.71
c1cncc(N2C[C@@H]3CN[C@@H]3C2)c1; -8.92
c1cncc(N2C[C@H]3CNC[C@H]32)c1; -8.88
COc1cncc(N2C[C@H]3CNC[C@H]32)c1; -9.12

Query string: State the recorded Log Ki for this entry: N=C(NO)c1cncc(N2C[C@H]3CNC[C@H]32)c1
Result string: -7.54
